Test system: Calu-3
assayProcedure: Cytotoxicity against human Calu-3 cells assessed as reduction in cell viability after 48 hrs by Cell-Tox green based fluorescence assay
settings: calu-3, 48 h
measuredEndpoint: CC50

Consider the worked cases shown below.
compoundSmiles	CC50
CCCCCCCCCCCCCCCC(=O)O[C@@H]1[C@H](O)[C@@H](CO[P@@](=O)(N[C@H](C)C(=O)OCC(CC)CC)Oc2ccccc2)O[C@@]1(C#N)c1ccc2c(N)ncnn12	> 50 µM
CCCCCCCCCCCCCC(=O)O[C@@H]1[C@H](O)[C@@H](CO[P@@](=O)(N[C@H](C)C(=O)OCC(CC)CC)Oc2ccccc2)O[C@@]1(C#N)c1ccc2c(N)ncnn12	> 50 µM

## Task Please give the documented CC50 of CCSCCCCCCCCCCCC(=O)O[C@H]1[C@@H](O)[C@](C#N)(c2ccc3c(N)ncnn23)O[C@@H]1CO[P@@](=O)(N[C@H](C)C(=O)OCC(CC)CC)Oc1ccccc1
## Result > 50 µM

###

assayProcedure: Selectivity index, ratio of CC50 for African green monkey Vero E6 cells to IC50 for Antiviral activity against SARS coronavirus 2 USA/WA1/2020 infected in Vero E6 cells assessed as reduction in virus-induced cytopathic effect
Format: toxicity, cell-based, Vero C1008
settings: read-out: Ratio CC50/IC50
measuredEndpoint: selectivity ratio

Please review the entries below; each comes with its answer.
compoundSmiles	selectivity ratio
CCC(CC)COC(=O)[C@@H](C)N[P@](=O)(OC[C@H]1O[C@@](C#N)(c2ccc3c(N)ncnn23)[C@H](OC(=O)CCCCCCCCCCCN=[N+]=[N-])[C@@H]1O)Oc1ccccc1	> 10.9
CCSCCCCCCCCCCCC(=O)O[C@H]1[C@@H](O)[C@](C#N)(c2ccc3c(N)ncnn23)O[C@@H]1CO[P@@](=O)(N[C@H](C)C(=O)OCC(CC)CC)Oc1ccccc1	> 20.5
CCCCCCCCCCCCCC(=O)O[C@H]1[C@@H](OC(=O)CCCCCCCCCCCCC)[C@](C#N)(c2ccc3c(N)ncnn23)O[C@@H]1CO[P@@](=O)(N[C@H](C)C(=O)OCC(CC)CC)Oc1ccccc1	> 1.59
CCCCCCCCCCCCCC(=O)O[C@H]1[C@@H](O)[C@](C#N)(c2ccc3c(N)ncnn23)O[C@@H]1CO[P@@](=O)(N[C@H](C)C(=O)OCC(CC)CC)Oc1ccccc1	> 22.1

Now for a further molecule.
## Task Annotate the molecule CCCCCCCCCCCCCC(=O)O[C@@H]1[C@H](O)[C@@H](CO[P@@](=O)(N[C@H](C)C(=O)OCC(CC)CC)Oc2ccccc2)O[C@@]1(C#N)c1ccc2c(N)ncnn12 with its measured selectivity ratio.
## Result > 20.7

###

assayProcedure: Selectivity index, ratio of CC50 for human Calu-3 cells to IC50 for Antiviral activity against SARS coronavirus 2 USA/WA1/2020 infected in human Calu3 cells assessed as reduction in virus-induced cytopathic effect
Type: toxicity, cell-based
settings: read-out: Ratio CC50/IC50
The entries below come with measured selectivity ratio values attached.

Solved entries (count: 2):
compoundSmiles	measuredEndpoint	recordedValue
CCC(CC)COC(=O)[C@@H](C)N[P@](=O)(OC[C@H]1O[C@@](C#N)(c2ccc3c(N)ncnn23)[C@H](O)[C@@H]1OC(=O)CCCCCCCCCCCN=[N+]=[N-])Oc1ccccc1	selectivity ratio	> 98
CCSCCCCCCCCCCCC(=O)O[C@H]1[C@@H](O)[C@](C#N)(c2ccc3c(N)ncnn23)O[C@@H]1CO[P@@](=O)(N[C@H](C)C(=O)OCC(CC)CC)Oc1ccccc1	selectivity ratio	> 200

## Task Indicate the recorded selectivity ratio value for this compound: CCCCCCCCCCCCCC(=O)O[C@H]1[C@@H](O)[C@](C#N)(c2ccc3c(N)ncnn23)O[C@@H]1CO[P@@](=O)(N[C@H](C)C(=O)OCC(CC)CC)Oc1ccccc1
## Result > 208

## Task Report measured selectivity ratio; entry is CCCCCCCCCCCCCC(=O)O[C@@H]1[C@H](O)[C@@H](CO[P@@](=O)(N[C@H](C)C(=O)OCC(CC)CC)Oc2ccccc2)O[C@@]1(C#N)c1ccc2c(N)ncnn12
## Result > 172

## Task Identify measured selectivity ratio associated with CCCCCCCCCCCCCCCC(=O)O[C@@H]1[C@H](O)[C@@H](CO[P@@](=O)(N[C@H](C)C(=O)OCC(CC)CC)Oc2ccccc2)O[C@@]1(C#N)c1ccc2c(N)ncnn12
## Result > 13.9

## Task Read off the recorded selectivity ratio for CCCCCCCCCCCCCCCC(=O)O[C@H]1[C@@H](O)[C@](C#N)(c2ccc3c(N)ncnn23)O[C@@H]1CO[P@@](=O)(N[C@H](C)C(=O)OCC(CC)CC)Oc1ccccc1
## Result > 32.3

## Task Quick one: give measured selectivity ratio for CCCCCCCCCCOCCC(=O)O[C@H]1[C@@H](O)[C@](C#N)(c2ccc3c(N)ncnn23)O[C@@H]1CO[P@@](=O)(N[C@H](C)C(=O)OCC(CC)CC)Oc1ccccc1
## Result > 191
